ASSAY_NAME: Inhibition of human topoisomerase 1B-mediated relaxation of supercoiled pSK DNA after 30 mins by ethidium bromide staining based agarose gel electrophoresis
The entries below come with measured EC50 values attached.
Write down the numeric answer in µM and omit the unit.

CCCCCCCCCCCCCCCC#CC(=O)O 51.9

# EC50 (molecule: CC[C@@]1(O)C(=O)OCc2c1cc1n(c2=O)Cc2cc3ccccc3nc2-1 ) is 2

###

System: Trypanosoma cruzi
ASSAY_NAME: Antiprotozoal activity against intracellular Trypanosoma cruzi amastigotes in rat L6 cells
Assay type: functional, organism-based
METRIC: IC50 (µM)
Write down the numeric answer in µM and omit the unit.

CCCCCCCCCCCCCCCC#CC(=O)O 48.1
O=C(Cn1ccnc1[N+](=O)[O-])NCc1ccccc1 1.47

Consider the additional molecule presented here.
// IC50 (Trypanosoma cruzi) for CCCCCCCCCCCC#CC(=O)O = 62.4

###

System: L6
ASSAY_NAME: Cytotoxicity against rat L6 cells
Type: cell-based
METRIC: pIC50
The quantity pIC50 is defined as the negative base-10 logarithm of the molar concentration.

CCCCCCCCCCCC#CC(=O)O 4.39
CCCCCCCCCCCCCCCC(=O)O 3.68
CCCCCCCCCCCCCCCC#CC(=O)O 4.70

Consider the additional compound presented here.
# pIC50 (compound: COc1cc([C@@H]2c3cc4c(cc3[C@H](O)[C@H]3COC(=O)[C@H]23)OCO4)cc(OC)c1OC ) is 7.70

###

The entries below come with measured pIC50 values attached.
Test system: Leishmania donovani
ASSAY_NAME: Antiprotozoal activity against Leishmania donovani axenic amastigotes
Type: functional, organism-based
The quantity pIC50 is defined as the negative base-10 logarithm of the molar concentration.

# pIC50 (compound: CCCCCCCCCCCCCCCC#CC(=O)O ) is 4.96

# pIC50 (compound: CCCCCCCCCCCCCCCCOP(=O)([O-])OCC[N+](C)(C)C ) is 6.31

# pIC50 (compound: CCCCCCCCCCCC#CC(=O)O ) is 4.61

These entries and their values trace back to ChEMBL document CHEMBL2151023.
